- Test system: Streptococcus agalactiae
- Protocol Notes: Minimum inhibitory concentration against Streptococcus agalactiae
- Assay type: functional
Where a SMILES comes first, the peptide text is derived from it. [ ]: non-standard residue; d: D form. Pra = C#CC[CH](N)C(=O)O
Could you please mark Yes for values of MIC below 3 µg/mL and No for values at or above it?

Here's what some known entries look like.
C#CC[C@H](NC(=O)[C@@H](N)CCl)C(=O)O.O=C(O)C(F)(F)F: Yes
C[C@@H](N)C(=O)N[C@H](C)C(=O)O.O=C(O)C(F)(F)F: No
C[C@H](N)C(=O)N[C@H](CCl)C(=O)O.O=C(O)C(F)(F)F: No
C#CCC(N)C(=O)NC(CC#C)C(=O)O.O=C(O)C(F)(F)F (stereo not given) (H-[Pra]-[Pra]-OH; configuration not given here): No
C#CCC(NC(=O)[C@H](C)N)C(=O)O.O=C(O)C(F)(F)F (stereo not given in full): No
CSCC[C@H](N)C(=O)N[C@@H](CCl)C(=O)O.O=C(O)C(F)(F)F: Yes
C#CC[C@@H](NC(=O)[C@H](N)CCl)C(=O)O.O=C(O)C(F)(F)F: No
C#CC[C@H](N)C(=O)O: No

// query Given the entry N[C@@H](CCl)C(=O)O , would its reported MIC be below 3 µg/mL?
// result No

// query Given the entry C#CC[C@H](N)C(=O)N[C@@H](C)C(=O)O.O=C(O)C(F)(F)F , would its reported MIC be below 3 µg/mL?
// result No
